test system: PDC KRAS tumor spheroids with HUVEC/MSC, viability; assay: Anticancer human tumor 349418-098-R-PDC patient-derived lung adenocarcinoma cell line growth inhibition [KRAS2]; conditions: curve of first compound; second compound 10 µM;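 also: spheroids exposed to compounds for seven days before readout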
Listing: IC50 of selected compounds
Quantity kind: IC50

1. CCN1CCN(Cc2ccc(Nc3ncc(F)c(-c4cc(F)c5nc(C)n(C(C)C)c5c4)n3)nc2)CC1 + C=CC(=O)N1CCN(c2nc(=O)n(-c3c(C)ccnc3C(C)C)c3nc(-c4c(O)cccc4F)c(F)cc23)C(C)C1 = < 3.16 nM
2. Cn1nccc1Nc1nccc(-c2cc3c(s2)C(C)(C)N(CCN2CCOCC2)C3=O)n1 + C=CC(=O)N1CCN(c2nc(=O)n(-c3c(C)ccnc3C(C)C)c3nc(-c4c(O)cccc4F)c(F)cc23)C(C)C1 = < 31.6 nM
3. CN(C)C/C=C/C(=O)Nc1cc2c(Nc3ccc(F)c(Cl)c3)ncnc2cc1O[C@H]1CCOC1 + C=CC(=O)N1CCN(c2nc(=O)n(-c3c(C)ccnc3C(C)C)c3nc(-c4c(O)cccc4F)c(F)cc23)C(C)C1 = < 0.316 nM
4. CC1(C)CCC(CN2CCN(c3ccc(C(=O)NS(=O)(=O)c4ccc(NCC5CCOCC5)c([N+](=O)[O-])c4)c(Oc4cnc5[nH]ccc5c4)c3)CC2)=C(c2ccc(Cl)cc2)C1 + C=CC(=O)N1CCN(c2nc(=O)n(-c3c(C)ccnc3C(C)C)c3nc(-c4c(O)cccc4F)c(F)cc23)C(C)C1 = < 31.6 nM

Every entry's value here was drawn from PubChem BioAssay AID1963866.
